Ref: patent US20260217813A1

Answer each item with its documented MFI.
Target: T1, IL-12 (Human IL12 (His Tag)), Sino Biological Cat. No. CT-050-H08H-20 (human, UniProt P29460 23-328; P29459 23-219)
T1 construct: Bought His-tagged p35/p40 heterodimer
T1 sequence (looked up) 1: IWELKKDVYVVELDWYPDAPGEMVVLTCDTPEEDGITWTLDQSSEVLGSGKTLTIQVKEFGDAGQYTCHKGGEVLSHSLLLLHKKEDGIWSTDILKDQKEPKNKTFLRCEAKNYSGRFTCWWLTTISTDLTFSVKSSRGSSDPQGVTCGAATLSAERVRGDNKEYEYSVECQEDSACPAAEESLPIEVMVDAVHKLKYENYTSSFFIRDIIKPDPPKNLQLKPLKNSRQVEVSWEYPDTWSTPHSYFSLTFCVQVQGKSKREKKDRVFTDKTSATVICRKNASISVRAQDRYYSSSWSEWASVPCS
T1 sequence (looked up) 2: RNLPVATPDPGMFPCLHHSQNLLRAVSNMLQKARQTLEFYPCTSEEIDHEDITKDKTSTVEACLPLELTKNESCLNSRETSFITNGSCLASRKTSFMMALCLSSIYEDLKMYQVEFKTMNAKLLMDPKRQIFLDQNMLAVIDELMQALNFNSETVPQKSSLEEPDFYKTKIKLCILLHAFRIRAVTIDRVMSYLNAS
Assay: FACS competition, IL-12-His 20 nM on 293T-IL-12RB1&IL-23R cells, antibody 0.12 µg/mL

binder: ustekinumab (trade name Stelara) (antibody, V domains shown) VH: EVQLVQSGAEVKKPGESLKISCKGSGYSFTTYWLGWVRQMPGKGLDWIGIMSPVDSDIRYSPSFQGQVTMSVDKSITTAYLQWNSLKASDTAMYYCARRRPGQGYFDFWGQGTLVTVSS VL: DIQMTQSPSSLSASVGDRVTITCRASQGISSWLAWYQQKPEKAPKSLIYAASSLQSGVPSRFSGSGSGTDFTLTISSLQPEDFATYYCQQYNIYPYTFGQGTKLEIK
result: 137

binder: H5L14 (antibody, human IgG1, kappa, V domains shown, IgG1/kappa) VH: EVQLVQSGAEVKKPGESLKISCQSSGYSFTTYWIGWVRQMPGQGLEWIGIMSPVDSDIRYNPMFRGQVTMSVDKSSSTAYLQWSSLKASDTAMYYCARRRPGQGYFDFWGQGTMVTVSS VL: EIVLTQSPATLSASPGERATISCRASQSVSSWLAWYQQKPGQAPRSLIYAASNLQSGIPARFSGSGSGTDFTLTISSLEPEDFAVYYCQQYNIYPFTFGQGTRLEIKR
result: 146

We now examine a further binder.
(Q) Given the binder H5L12 (antibody, human IgG1, kappa, V domains shown, IgG1/kappa) VH: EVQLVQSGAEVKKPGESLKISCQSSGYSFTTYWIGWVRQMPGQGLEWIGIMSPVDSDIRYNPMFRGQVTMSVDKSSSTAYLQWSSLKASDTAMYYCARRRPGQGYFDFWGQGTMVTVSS VL: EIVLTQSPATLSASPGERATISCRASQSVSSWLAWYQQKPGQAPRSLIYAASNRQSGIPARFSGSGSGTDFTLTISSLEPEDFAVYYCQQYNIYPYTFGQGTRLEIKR , what is its reported MFI?
(A) 133
